Just for reference, patent US11542282B2 is where these values come from.

system: MEF PARP-2 (-/-) KO cells; test: Cell viability assay in MEF PARP-2 KO-/- cells; type: cell-based, mouse; conditions: Mus musculus, NA = Not applicable, no cell death observed
Mark TRUE only when EC50 stays strictly below 50 µM. Values equal to the cut-off are FALSE.

# example entries with known answers
1) CC(C)(C)OC(=O)N1CC2(CCN(C(=O)c3cc(Cc4n[nH]c(=O)c5ccccc45)ccc3F)C2)C1 [Compound 14b]
TRUE
2) O=C(c1cc(Cc2n[nH]c(=O)c3ccccc23)ccc1F)N1CC2(CCN(C(=O)C3CC3)CC2)C1 [Compound 12d]
FALSE

For this compound, is EC50 lower than 50 µM? O=C(c1cc(Cc2n[nH]c(=O)c3ccccc23)ccc1F)N1CCC2(CCCC2)C1 [Compound 15a]
FALSE

Also need O=C(c1cc(Cc2n[nH]c(=O)c3ccccc23)ccc1F)N1CC2(CCNCC2)C1 [Compound 12c] , thanks.
FALSE

Also need O=C(c1cc(Cc2n[nH]c(=O)c3ccccc23)ccc1F)N1CCC2(CCNC2)C1 (stereo not drawn) [Compound 15c] , thanks.
FALSE

Also need CC(C)(C)OC(=O)N1CCC2(CC1)CCN(C(=O)c1cc(Cc3n[nH]c(=O)c4ccccc34)ccc1F)C2 [Compound 16b] , thanks.
TRUE
